These data points were gathered from BigSolDB 2.1.

- Experimental Context: in 1,4-dioxane, 308.15 K
Measurement Name: solubility (mole fraction)
Respond with the number and no other words.

Just so you know, measured solubility (mole fraction) for CC(CO)(CO)C(=O)O came out at 0.0124

====

- Experimental Context: in 1,4-dioxane, 333.15 K
Measurement Name: solubility (mole fraction)

Just so you know, measured solubility (mole fraction) for CC(CO)(CO)C(=O)O came out at 0.0334

====

- Experimental Context: in gamma-butyrolactone, 345.15 K
Measurement Name: solubility (mole fraction)
Respond with the number and no other words.

Just so you know, measured solubility (mole fraction) for CC(CO)(CO)C(=O)O came out at 0.0392

====

- Experimental Context: in gamma-butyrolactone, 343.15 K
Measurement Name: solubility (mole fraction)

Just so you know, measured solubility (mole fraction) for CC(CO)(CO)C(=O)O came out at 0.0367

====

- Experimental Context: in gamma-valerolactone, 308.15 K
Measurement Name: solubility (mole fraction)

Just so you know, measured solubility (mole fraction) for CC(CO)(CO)C(=O)O came out at 0.00913

====

- Experimental Context: in gamma-valerolactone, 345.15 K
Measurement Name: solubility (mole fraction)
Respond with the number and no other words.

Just so you know, measured solubility (mole fraction) for CC(CO)(CO)C(=O)O came out at 0.0324

====

- Experimental Context: in n-butyl acetate, 308.15 K
Measurement Name: solubility (mole fraction)
Respond with the number and no other words.

Just so you know, measured solubility (mole fraction) for CC(CO)(CO)C(=O)O came out at 0.00234

====

- Experimental Context: in MIBK, 328.15 K
Measurement Name: solubility (mole fraction)
Respond with the number and no other words.

Just so you know, measured solubility (mole fraction) for CC(CO)(CO)C(=O)O came out at 0.022

====

- Experimental Context: in MIBK, 313.15 K
Measurement Name: solubility (mole fraction)
Respond with the number and no other words.

Just so you know, measured solubility (mole fraction) for CC(CO)(CO)C(=O)O came out at 0.0186

====

- Experimental Context: in 1,4-dioxane, 338.15 K
Measurement Name: solubility (mole fraction)
Respond with the number and no other words.

Just so you know, measured solubility (mole fraction) for CC(CO)(CO)C(=O)O came out at 0.0365

====

- Experimental Context: in MIBK, 303.15 K
Measurement Name: solubility (mole fraction)

Just so you know, measured solubility (mole fraction) for CC(CO)(CO)C(=O)O came out at 0.0164

====

- Experimental Context: in n-butyl acetate, 338.15 K
Measurement Name: solubility (mole fraction)
Respond with the number and no other words.

Just so you know, measured solubility (mole fraction) for CC(CO)(CO)C(=O)O came out at 0.00572

====

- Experimental Context: in cyclopentyl methyl ether, 313.15 K
Measurement Name: solubility (mole fraction)
Respond with the number and no other words.

Just so you know, measured solubility (mole fraction) for CC(CO)(CO)C(=O)O came out at 0.00276

====

- Experimental Context: in gamma-valerolactone, 343.15 K
Measurement Name: solubility (mole fraction)
Respond with the number and no other words.

Just so you know, measured solubility (mole fraction) for CC(CO)(CO)C(=O)O came out at 0.0305

====

- Experimental Context: in cyclopentyl methyl ether, 303.15 K
Measurement Name: solubility (mole fraction)
Respond with the number and no other words.

Just so you know, measured solubility (mole fraction) for CC(CO)(CO)C(=O)O came out at 0.00194

====

- Experimental Context: in gamma-butyrolactone, 350.15 K
Measurement Name: solubility (mole fraction)
Respond with the number and no other words.

Just so you know, measured solubility (mole fraction) for CC(CO)(CO)C(=O)O came out at 0.048

====

- Experimental Context: in MIBK, 353.15 K
Measurement Name: solubility (mole fraction)
Respond with the number and no other words.

Just so you know, measured solubility (mole fraction) for CC(CO)(CO)C(=O)O came out at 0.0296

====

- Experimental Context: in 1,4-dioxane, 350.15 K
Measurement Name: solubility (mole fraction)
Respond with the number and no other words.

Just so you know, measured solubility (mole fraction) for CC(CO)(CO)C(=O)O came out at 0.0501

====

- Experimental Context: in cyclopentyl methyl ether, 353.15 K
Measurement Name: solubility (mole fraction)

Just so you know, measured solubility (mole fraction) for CC(CO)(CO)C(=O)O came out at 0.00906

====

- Experimental Context: in 1,4-dioxane, 345.15 K
Measurement Name: solubility (mole fraction)
Respond with the number and no other words.

Just so you know, measured solubility (mole fraction) for CC(CO)(CO)C(=O)O came out at 0.0442

====

- Experimental Context: in n-butyl acetate, 303.15 K
Measurement Name: solubility (mole fraction)
Respond with the number and no other words.

Just so you know, measured solubility (mole fraction) for CC(CO)(CO)C(=O)O came out at 0.00199

====

- Experimental Context: in 1,4-dioxane, 348.15 K
Measurement Name: solubility (mole fraction)
Respond with the number and no other words.

Just so you know, measured solubility (mole fraction) for CC(CO)(CO)C(=O)O came out at 0.0479

====

- Experimental Context: in gamma-butyrolactone, 333.15 K
Measurement Name: solubility (mole fraction)

Just so you know, measured solubility (mole fraction) for CC(CO)(CO)C(=O)O came out at 0.026

====

- Experimental Context: in n-butyl acetate, 298.15 K
Measurement Name: solubility (mole fraction)
Respond with the number and no other words.

Just so you know, measured solubility (mole fraction) for CC(CO)(CO)C(=O)O came out at 0.00173

====

- Experimental Context: in ethyl acetate, 313.15 K
Measurement Name: solubility (mole fraction)

Just so you know, measured solubility (mole fraction) for CC(CO)(CO)C(=O)O came out at 0.00507

====

- Experimental Context: in gamma-butyrolactone, 353.15 K
Measurement Name: solubility (mole fraction)
Respond with the number and no other words.

Just so you know, measured solubility (mole fraction) for CC(CO)(CO)C(=O)O came out at 0.0529

====

- Experimental Context: in 1,4-dioxane, 318.15 K
Measurement Name: solubility (mole fraction)
Respond with the number and no other words.

Just so you know, measured solubility (mole fraction) for CC(CO)(CO)C(=O)O came out at 0.0178

====

- Experimental Context: in MIBK, 298.15 K
Measurement Name: solubility (mole fraction)
Respond with the number and no other words.

Just so you know, measured solubility (mole fraction) for CC(CO)(CO)C(=O)O came out at 0.0149

====

- Experimental Context: in 1,4-dioxane, 353.15 K
Measurement Name: solubility (mole fraction)

Just so you know, measured solubility (mole fraction) for CC(CO)(CO)C(=O)O came out at 0.0535

====

- Experimental Context: in cyclopentyl methyl ether, 333.15 K
Measurement Name: solubility (mole fraction)
Respond with the number and no other words.

Just so you know, measured solubility (mole fraction) for CC(CO)(CO)C(=O)O came out at 0.00433

====

- Experimental Context: in gamma-butyrolactone, 318.15 K
Measurement Name: solubility (mole fraction)
Respond with the number and no other words.

Just so you know, measured solubility (mole fraction) for CC(CO)(CO)C(=O)O came out at 0.0148

====

- Experimental Context: in n-butyl acetate, 353.15 K
Measurement Name: solubility (mole fraction)
Respond with the number and no other words.

Just so you know, measured solubility (mole fraction) for CC(CO)(CO)C(=O)O came out at 0.00902

====

- Experimental Context: in cyclopentyl methyl ether, 308.15 K
Measurement Name: solubility (mole fraction)
Respond with the number and no other words.

Just so you know, measured solubility (mole fraction) for CC(CO)(CO)C(=O)O came out at 0.00239

====

- Experimental Context: in ethyl acetate, 308.15 K
Measurement Name: solubility (mole fraction)
Respond with the number and no other words.

Just so you know, measured solubility (mole fraction) for CC(CO)(CO)C(=O)O came out at 0.00447

====

- Experimental Context: in gamma-valerolactone, 333.15 K
Measurement Name: solubility (mole fraction)
Respond with the number and no other words.

Just so you know, measured solubility (mole fraction) for CC(CO)(CO)C(=O)O came out at 0.0218

====

- Experimental Context: in gamma-butyrolactone, 338.15 K
Measurement Name: solubility (mole fraction)
Respond with the number and no other words.

Just so you know, measured solubility (mole fraction) for CC(CO)(CO)C(=O)O came out at 0.0315

====

- Experimental Context: in n-butyl acetate, 348.15 K
Measurement Name: solubility (mole fraction)

Just so you know, measured solubility (mole fraction) for CC(CO)(CO)C(=O)O came out at 0.00763

====

- Experimental Context: in MIBK, 318.15 K
Measurement Name: solubility (mole fraction)
Respond with the number and no other words.

Just so you know, measured solubility (mole fraction) for CC(CO)(CO)C(=O)O came out at 0.0192

====

- Experimental Context: in MIBK, 323.15 K
Measurement Name: solubility (mole fraction)

Just so you know, measured solubility (mole fraction) for CC(CO)(CO)C(=O)O came out at 0.0202

====

- Experimental Context: in n-butyl acetate, 313.15 K
Measurement Name: solubility (mole fraction)
Respond with the number and no other words.

Just so you know, measured solubility (mole fraction) for CC(CO)(CO)C(=O)O came out at 0.00268

====

- Experimental Context: in n-butyl acetate, 323.15 K
Measurement Name: solubility (mole fraction)
Respond with the number and no other words.

Just so you know, measured solubility (mole fraction) for CC(CO)(CO)C(=O)O came out at 0.00381
